Each recorded value in this set is attributed to patent US11576979B2.

Experiment: Disulfide cleavage by glutathione (GSH), LC/MS
Format: physicochemical
Conditions: 15 uM compound, 4 mM GSH, pH 7.0, 37 C
property measured: % Remaining at 24 h by GSH
Please answer in the form of a number followed by its unit of measurement.

Bench note: what % Remaining at 24 h by GSH did C=C1C[C@H]2C(O)N(C(=O)OCC3(SSCC(=O)O)CCC3)c3cc(OC)c(OC)cc3C(=O)N2C1 (stereo partly shown) [PBD monomer disulfide prodrug 9] show?
1%

Bench note: what % Remaining at 24 h by GSH did C=C1C[C@H]2C(O)N(C(=O)OCC3(SSCCO)CCCC3)c3cc(OC)c(OC)cc3C(=O)N2C1 (stereo partly shown) [PBD monomer disulfide prodrug 8] show?
0.5%

Bench note: what % Remaining at 24 h by GSH did C=C1C[C@H]2C(O)N(C(=O)OCC3(SSCC)CCCC3)c3cc(OC)c(OC)cc3C(=O)N2C1 (stereo partly shown) [PBD monomer disulfide prodrug 5] show?
65.9%

Bench note: what % Remaining at 24 h by GSH did C=C1C[C@H]2C(O)N(C(=O)OCC(COC)SSC(C)C)c3cc(OC)c(OC)cc3C(=O)N2C1 (stereo partly shown) [PBD monomer disulfide prodrug 21] show?
0%

Bench note: what % Remaining at 24 h by GSH did C=C1C[C@H]2C(O)N(C(=O)OCC3(SSCC)CC3)c3cc(OC)c(OC)cc3C(=O)N2C1 (stereo partly shown) [PBD monomer disulfide prodrug 17] show?
0%

Bench note: what % Remaining at 24 h by GSH did C=C1C[C@H]2C(O)N(C(=O)OC[C@@H](C)SSC(C)(C)C)c3cc(OC)c(OC)cc3C(=O)N2C1 (stereo partly shown) [PBD monomer disulfide prodrug 13] show?
98.8%

Bench note: what % Remaining at 24 h by GSH did C=C1C[C@H]2C(O)N(C(=O)OCC3(SSCCO)CCOC3)c3cc(OC)c(OC)cc3C(=O)N2C1 (stereo partly shown) [PBD monomer disulfide prodrug 22] show?
0%
